B1: tRNA (parent)
chain: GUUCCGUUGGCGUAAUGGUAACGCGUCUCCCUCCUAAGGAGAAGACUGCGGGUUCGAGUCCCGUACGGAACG

# Variants of: B1
# TEST_NAME: yeast fitness relative to wild type (ratio to wild type); higher = fitter; tRNA-Arg(CCU), competitive growth, 37 C, YPD
This sample holds only a part of the variants without activity.
READOUT_LABEL: yeast fitness
Lab note: jot down the number only; don't add units.

Lookup result for G23C A36U C46G C60U ; measured yeast fitness: 0.591

The value of yeast fitness measured for the variant C4U A42C G58A turned out to be 0.567

# yeast fitness (variant: U7C G68C A69U ) is 0.612
